Target Or System: SUMO-conjugating enzyme UBC9 (Homo sapiens)
Assay Explanation: blockers of UBC9-mediated SUMO conjugation – biochemical, AlphaScreen, SUMOylation inhibitor project, confirmation (AID 2018)
Experimental Parameters: AlphaScreen in vitro SUMOylation assay; at 35 µM; stronger effect = higher value
Out of some 1,200 compounds screened, about 600 (50%) were called active. So high a share suggests a set chosen from earlier hits. The list shows a part of the results. Measured potencies and affinities stand elsewhere.
Decide by inhibition: equal to or exceeding 50% means Condition met, less means Condition not met.

• Cc1cc(=O)n2[nH]c(N)c(N=Nc3ccccc3F)c2n1 = Condition not met
• Cc1oc2c(c(C)cc3oc(=O)c(CC(=O)N[C@H](C(=O)O)C(C)C)c(C)c32)c1C = Condition not met
• O=C(N/N=C/c1ccc(-c2ccc(Cl)c(C(=O)O)c2)o1)c1cc2c(ccc3ccccc32)o1 = Condition met
• O=C(O)c1cc(-c2ccco2)nn1-c1ccc(Cl)cc1 = Condition met
• Cc1c(CC(=O)O)c(=O)oc2c(C)c(OCc3ccccc3Br)ccc12 = Condition met
• O=C(N/N=C/c1ccc(O)cc1O)C(=O)N/N=C/c1ccc(O)cc1O = Condition met
• COc1cccc(OC)c1C(=O)N1CCNCC1 = Condition not met
• COCCCNC(=O)c1c(N)n(-c2ccccc2)c2nc3ccccc3nc12 = Condition not met
• CC(=O)Oc1ccc2cc(-c3nc4ccccc4n3C)c(=O)oc2c1 = Condition not met
• COc1cccc(Cn2cccc(NC(=O)NC3CCCCC3)c2=O)c1 = Condition not met
• COC(=O)c1ccccc1-c1ccc(C(c2c(C)[nH][nH]c2=O)c2c(C)[nH][nH]c2=O)o1 = Condition met
• COc1ccc(NC(=S)Nc2cccc3ccccc23)cc1OC = Condition not met
• CC(=O)Nc1cccc(NC(=S)Nc2cccc3ccccc23)c1 = Condition not met
• CN(C)c1cc(N/N=C/c2ccccc2C(F)(F)F)nc(N(C)C)n1 = Condition met
• COc1cccc(/C=N/NC(=O)C(=O)N/N=C/c2cccc(OC)c2O)c1O = Condition met
• Oc1cccc2c(NC(=S)Nc3ccc(SC(F)F)cc3)cccc12 = Condition not met
• CC(C)N1CCC2(CC1)C(C#N)=C(N)NC(S)=C2C#N = Condition not met
• CC1=NN(c2ccc(C)cc2C)C(=O)C1C(c1cccc(O)c1)C1C(=O)N(c2ccc(C)cc2C)N=C1C (stereo not given) = Condition met
• Cc1[nH][nH]c(=O)c1C(c1ccc(-c2ccccc2C(=O)O)o1)c1c(C)[nH][nH]c1=O = Condition met
• Fc1cccc(-n2c(-c3cccs3)nc3nc4ccccc4nc32)c1 = Condition not met
• Cc1nc2ccc(-c3nc4cc(N)ccc4o3)cc2[nH]1 = Condition not met
• Cc1c(CC(=O)N2CCN(C(=O)C3COc4ccccc4O3)CC2)c(=O)oc2c(C)c(O)ccc12 (stereo not given) = Condition not met
• CN(C(=O)CSc1nnc(NCc2ccccc2)s1)C1CCS(=O)(=O)C1 (stereo not given) = Condition not met
• CC(=O)Oc1ccc2c(C)c(CC(C)O)c(=O)oc2c1 (stereo not given) = Condition not met
• O=[N+]([O-])c1ccc(-c2ccc(C=Nc3cccc4ccccc34)o2)cc1 = Condition met
• CC1CCN(Cc2cc(=O)oc3cc(O)c(Cl)cc23)CC1 = Condition not met
• CCOc1ccc(N2C(=O)c3ccc(C(=O)OCC(=O)N(CC)C4CCS(=O)(=O)C4)cc3C2=O)cc1 (stereo not given) = Condition not met
• CN(C)c1ccc(NC(=O)CSc2nnc(-c3ccco3)c(-c3ccco3)n2)cc1 = Condition not met
• CC(=O)C1C(=O)C=C(c2ccco2)CC1c1ccccc1 (stereo not given) = Condition not met
• Cn1c(=O)c(Nc2ccc(O)cc2)c2c3c(cccc31)C(=O)c1ccccc1-2 = Condition met
• CC(=O)c1cccc(NC(=S)Nc2cccc3ccccc23)c1 = Condition not met
• Cc1ccc(NC(=O)CSc2nnc(-c3ccco3)c(-c3ccco3)n2)cc1 = Condition met
• O=[N+]([O-])c1ccc(O)c(C=Nc2cccc3ncccc23)c1 = Condition not met

---

The following compounds are shown together with reported inhibition values.
Target Or System: SUMO-conjugating enzyme UBC9 (Homo sapiens) (UniProt P63279)
Sequence (P63279 whole entry, looked up): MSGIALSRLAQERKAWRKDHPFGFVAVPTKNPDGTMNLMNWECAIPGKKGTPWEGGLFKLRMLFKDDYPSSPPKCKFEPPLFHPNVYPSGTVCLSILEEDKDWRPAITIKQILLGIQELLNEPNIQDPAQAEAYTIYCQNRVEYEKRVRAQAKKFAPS
Assay Explanation: blockers of UBC9-mediated SUMO conjugation – biochemical, AlphaScreen, SUMOylation inhibitor project, confirmation (AID 2018)
Experimental Parameters: AlphaScreen in vitro SUMOylation assay; at 35 µM; stronger effect = higher value
In all, about 1,200 compounds went through this assay and about 600 (50%) were called active. The set was probably picked from earlier hits. The list shows a part of the results. Potency and affinity values are given separately.
Reported Metric: inhibition (%)

• CN(C)c1ccc(/C=N/Nc2cc(N3CCOCC3)nc(N3CCOCC3)n2)cc1 = 39.5
• Cc1ccc(S(=O)(=O)NNC(=S)Nc2c(Cl)cccc2Cl)cc1 = -0.4
• OCCNC(=S)Nc1ccc2nsnc2c1 = 54.8
• Cc1ccc(S(=O)(=O)C(C#N)c2nc3ccccc3nc2N2CCCC2)cc1C (stereo not drawn) = 45.8
• N#CC(C(=O)NC1CC1)c1nc2ccccc2nc1N1CCCC1 (stereo not drawn) = 29
• Cc1ccc(/C=C2\SC(=S)N(c3cccnc3)C2=O)o1 = 33.6
• CCOC(=O)c1ccc(N2C(=O)c3n[nH]c(-c4ccco4)c3C2c2ccc([N+](=O)[O-])cc2)cc1 (stereo not drawn) = 34.2
• CCC(=O)N1CCc2cc(S(=O)(=O)NC(C(=O)NCc3ccc(C)cc3)C(C)C)ccc21 (stereo not drawn) = 37.4
• COc1ccccc1C1Nc2cccc3cccc(c23)N1 = 77.6
• O=C(Nc1ccc(N2CCOCC2)c2nonc12)C1CCCC1 = 24
• O=C1NC(=O)c2cc(NC(=O)C3CCCCC3)ccc21 = 8.7
• Nc1c(N2CCOCC2)cc(Cl)c2nonc12 = -2.8
• COc1ccc(S(=O)(=O)/N=C2/NC(=O)/C(=C\c3ccco3)S2)cc1 = 40.6
• COc1ccc(S(=O)(=O)C(C#N)c2nc3ccccc3nc2N2CCC(C)CC2)cc1 (stereo not drawn) = 15.7
• Cc1c(O)ccc2c(CC(=O)N[C@@H](Cc3ccc(O)cc3)C(=O)O)cc(=O)oc12 = 16.9
• CCOc1ccc2c(c1)C(NC(C)=O)C(=O)N2CCN1CCOCC1 (stereo not drawn) = 95.9
• CC(C)(C)C(=O)NC(Nc1cccc2cccnc12)C(Cl)(Cl)Cl (stereo not drawn) = 7.9
• Nc1ccc(N2CCCCC2)c2nonc12 = 78.2
• Cc1ccc(C2Nc3cccc4cccc(c34)N2)s1 = 71.9
• Cc1ccc(Cn2cccc(NS(C)(=O)=O)c2=O)cc1 = 26.5
• Cc1ccc(-n2cccn2)c([C@@H]2C[C@H]3CN(C)C(=O)[C@]34CCCN24)c1 = 8.1
• COc1cc(OC)c(C2Nc3cccc4cccc(c34)N2)c(OC)c1 = 91.3
• Cc1cccn2c(=O)c3cc(C#N)c(=NC(=O)c4ccco4)n(Cc4ccco4)c3nc12 = 25.4
• O=C(O)c1cc2cccc(S(=O)(=O)N3CCOCC3)c2cc1O = -21.6
• Cc1ccc(NC(=O)Nc2cccn(Cc3c(F)cccc3Cl)c2=O)cc1 = 14.6
• Cc1ccc(N=C2NC(=O)/C(=C\c3ccco3)S2)cc1 = 44.4
• Cc1nc2c3cc(F)ccc3n(Cc3ccc(F)cc3)c2s1 = 20.7
• NS(=O)(=O)c1ccc(-c2ccc(/C=C3\NC(=S)NC3=O)o2)cc1 = 70.9
• Cc1cccc(NC(=O)CC2Nc3cccc4cccc(c34)NC2=O)c1 (stereo not drawn) = 28.8
• S=C(Nc1ccc2nsnc2c1)NC1CCCCC1 = 95.3
• COC(=O)c1ccccc1NC1=C/C(=N\S(=O)(=O)c2cccs2)c2ccccc2C1=O = 102
• S=C(Nc1ccc2nsnc2c1)N1CCCCCC1 = 28.1
• Nc1ccccc1NC1=CC(=O)CC(c2ccco2)C1 (stereo not drawn) = 18.4
• Cc1ccccc1S(=O)(=O)Nc1nc2ccccc2nc1N1CCc2ccccc2C1 = -43.2
• CCN(CC)c1cc(Cl)c2nonc2c1N = 16.4
• O=c1oc2ccccc2c(Nc2cccc3cccnc23)c1[N+](=O)[O-] = 7.5
• S=C(Nc1ccc2nsnc2c1)N1CCCCC1 = 18.3
• NCCc1ccc(O)c(O)c1 = -6.3

---

Target Or System: SUMO-conjugating enzyme UBC9 (Homo sapiens)
Assay Explanation: blockers of UBC9-mediated SUMO conjugation – biochemical, AlphaScreen, SUMOylation inhibitor project, confirmation (AID 2018)
Experimental Parameters: AlphaScreen in vitro SUMOylation assay; at 35 µM; stronger effect = higher value
Hit rate of the full screen: of about 1,200 compounds, about 600 (50%) were called active. So high a share suggests a set chosen from earlier hits. This is one part of the list. Entries with a potency or affinity are not part of this list.
Decide by inhibition: equal to or exceeding 20% means TRUE, less means FALSE.

- O=C1N=c2ccccc2=C1c1sc(Nc2ccc(O)cc2)nc1O: TRUE
- O=C(O)CN1C(=O)/C(=C\c2cc([N+](=O)[O-])ccc2OCc2ccccc2Cl)SC1=S: TRUE
- CC(=O)Oc1c(/C=C(\C#N)C(N)=O)[nH]c2ccccc12: TRUE
- S=c1[nH]nc(-c2cccnc2)n1/N=C/C=C/c1ccco1: FALSE
- CC(C)(C)C1CCC2(CC1)Nc1cccc3cccc(c13)N2: TRUE
- O=C(c1cccn2c(=O)c3cc(Cl)ccc3nc12)N1CCOCC1: FALSE
- COc1ccc(-c2csc(NC(=S)NC(=O)/C=C/c3ccco3)n2)cc1OC: TRUE
- CCOC(=O)N1CCN(C(=O)c2cccn3c(=O)c4cc(Br)ccc4nc23)CC1: FALSE
- COc1cc2c(C#N)c(N3CCN(C)CC3)nc(N)c2c(N)n1: TRUE
- COc1cc2c(C#N)c(N3CCCCC3)nc(N)c2c(N)n1: TRUE
- COc1ccccc1CCNC(=O)CSc1ccc(-c2ccco2)nn1: FALSE
- COc1ccc(-c2cc(C(F)(F)F)n3ncc(C(=O)NCc4ccco4)c3n2)cc1: TRUE
- NC(N)=N/N=C/c1cc([N+](=O)[O-])ccc1O: FALSE
- COc1cc(/C=C2\C(=O)N(CCC#N)N=C2C)c(Br)cc1OC(C)C: FALSE
- Cc1ccc(C)c(NC(=S)Nc2cccc3cnccc23)c1: FALSE
- COc1ccc2c(c1)Cc1sc(NC(=O)c3ccco3)nc1-2: TRUE
- O=C1N/C(=N/N=C/c2ccccc2O)SC1Cc1ccc(F)cc1 (stereo unspecified): FALSE
- CCCCOc1ccc(CSc2ncn[nH]2)cc1: FALSE
- CNS(=O)(=O)c1ccc2nc(NC(=O)/C=C/c3ccco3)sc2c1: FALSE
- O=c1c2ccccc2oc2cc(NCCCN3CCOCC3)ccc12: FALSE
- N#Cc1c(N(CCO)CCO)nc(N)c2c(N)nc3c(c12)CC(=O)N3Cc1cccs1: TRUE
- CCOC(=O)N1CCN(C(=O)c2cccn3c(=O)c4cc(Cl)ccc4nc23)CC1: FALSE
- Cc1ccc(C(=O)c2c3ccc(N)cc3nn2CCC(N)=O)cc1: TRUE
- Cc1c(C(=O)c2ccc(Cl)cc2[N+](=O)[O-])c2ccccn2c1CCC#N: FALSE
- Cc1cc(C)c(C(N)=O)c(Nc2cccc3ccccc23)n1: TRUE
- COc1ccccc1/C=C/CN1CCN(c2ccccc2)CC1: TRUE
- CCOc1ccc(S(=O)(=O)N2CCCC(C(=O)NCc3ccco3)C2)cc1 (stereo unspecified): FALSE
- CC1=NN(c2ccccc2)C(=O)/C1=C\c1cn(CCC#N)nc1-c1ccc(Cl)cc1: TRUE
- O=C(COc1ccc2oc(-c3ccco3)cc(=O)c2c1)N1CCCCC1: FALSE
- O=C(CSc1nnc(-c2ccco2)c(-c2ccco2)n1)c1ccccc1: TRUE
- CCCCN1Cc2c(nc3cc(-c4ccco4)[nH]n3c2=O)C1=O: FALSE
- CC(=O)c1ccc2cccc3c2c1N=CN3C: FALSE
- COc1ccc2c(c1)C(C)=CC(C)(C)N2C(=O)Nc1ccccc1: TRUE
- CC1=NN(c2ccccc2)C(=O)/C1=C/c1ccc(Cl)cc1: TRUE
- Cc1c(C(=O)c2ccc(F)cc2F)c2ccccn2c1CCC#N: FALSE
